target-entity: Acid ceramidase (Homo sapiens)
assay-notes: Inhibition of ACDase in human MCF7 cell lysate using [9,10-3H] De-C16-Cer substrate after 1 hr by scintillation counting analysis
property-name: IC50
Write the numeric value and follow it with the unit.

QUERY: Write down the reported IC50 of CCCCCCCCCCCCCC(=O)N[C@H](CO)[C@H](O)c1ccc([N+](=O)[O-])cc1 , test system: Acid ceramidase (Homo sapiens).
RESULT: 27.7 µM

====

target-entity: Acid ceramidase (Homo sapiens) (UniProt Q13510)
Sequence (Q13510 22-142 limits assumed): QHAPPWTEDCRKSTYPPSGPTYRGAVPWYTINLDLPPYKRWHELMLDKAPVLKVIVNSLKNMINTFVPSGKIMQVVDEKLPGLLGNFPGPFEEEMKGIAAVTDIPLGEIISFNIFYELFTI
Sequence (Q13510 143-395 limits assumed): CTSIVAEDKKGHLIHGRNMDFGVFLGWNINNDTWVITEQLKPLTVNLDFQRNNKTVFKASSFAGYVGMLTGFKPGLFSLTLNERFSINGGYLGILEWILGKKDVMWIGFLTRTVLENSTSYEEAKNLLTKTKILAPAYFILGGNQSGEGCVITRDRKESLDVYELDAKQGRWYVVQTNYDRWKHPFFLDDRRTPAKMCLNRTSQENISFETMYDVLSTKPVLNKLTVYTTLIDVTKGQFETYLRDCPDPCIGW
assay-notes: Inhibition of ACDase in human MCF7 cell lysate using [9,10-3H] De-C16-Cer substrate at 50 uM after 1 hr by scintillation counting analysis
Format: cell-free
Calls of active or inactive are those of the source. The calls are words filed in the database; no cut-off is given here.
property-name: inhibition

| chemical-structure | property-name | result |
| --- | --- | --- |
| CCCCCCCCCCCCCC(=O)N[C@H](CO)[C@H](O)c1ccc([N+](=O)[O-])cc1 | inhibition | 95% |
| CCCCCCCCCCCCCC(=O)N[C@H](CO)[C@H](OC(=O)CN(C)C)c1ccc([N+](=O)[O-])cc1.Cl | inhibition | Active |
| CCCCCCCCCCCCCC(=O)N[C@H](COC(=O)CN(C)C)[C@H](O)c1ccc([N+](=O)[O-])cc1.Cl | inhibition | Active |
| CCCCCCCCCCCCCC(=O)N[C@H](COC(=O)CN(C)C)[C@H](OC(=O)CN(C)C)c1ccc([N+](=O)[O-])cc1.Cl | inhibition | Active |

====

target-entity: Acid ceramidase (Homo sapiens)
assay-notes: Inhibition of ACDase in human MCF7 cells at 10 uM after 1 hr by cellular/scintillation counting analysis
Type: cell-based
Active and inactive are the calls of the source. The rule behind the calls is not given here.

| chemical-structure | target-entity | inhibition |
| --- | --- | --- |
| CCCCCCCCCCCCCC(=O)N[C@H](CO)[C@H](O)c1ccc([N+](=O)[O-])cc1 | Acid ceramidase (Homo sapiens) | Active |
| CCCCCCCCCCCCCC(=O)N[C@H](COC(=O)CN(C)C)[C@H](O)c1ccc([N+](=O)[O-])cc1.Cl | Acid ceramidase (Homo sapiens) | Active |
| CCCCCCCCCCCCCC(=O)N[C@H](COC(=O)CN(C)C)[C@H](OC(=O)CN(C)C)c1ccc([N+](=O)[O-])cc1.Cl | Acid ceramidase (Homo sapiens) | Active |
| CCCCCCCCCCCCCC(=O)N[C@H](CO)[C@H](OC(=O)CN(C)C)c1ccc([N+](=O)[O-])cc1.Cl | Acid ceramidase (Homo sapiens) | Active |
